Please provide measured AUC at 24 h for the entries that follow.
# Method Notes: AUC in CD-1 mouse at 15 mg/kg, iv measured up to 24 hrs by LC-MS/MS analysis
# Type: ADME, organism-based
# Applied Conditions: in vivo
Numbers only, in ng·h/mL.

>>> reported_measurement("C[C@@H]1OCC2(CCN(c3cnc(C(=O)Nc4cc(F)cc5cccnc45)cn3)CC2)[C@@H]1N")
6010

Now turn to the next compound.
Qu. Data request, read-out AUC at 24 h, for N[C@@H]1[C@H]2CN(c3cnc(C(=O)Nc4cc(F)cc5cccnc45)cn3)C[C@@H]12
Ans. 3420

---

# Method Notes: Oral bioavailability in CD-1 mouse at 30 mg/kg measured up to 24 hrs by LC-MS/MS analysis
# Type: ADME, organism-based
# Applied Conditions: in vivo
Observation Type: bioavailability (%)
Give bare numbers, in %.

>>> reported_measurement("N[C@@H]1[C@H]2CN(c3cnc(C(=O)Nc4cc(F)cc5cccnc45)cn3)C[C@@H]12")
55.3

Now look at this entry.
Qu. Query (compound): C[C@@H]1OCC2(CCN(c3cnc(C(=O)Nc4cc(F)cc5cccnc45)cn3)CC2)[C@@H]1N ; field requested: bioavailability
Ans. 55.2

---

# Method Notes: Drug concentration in mouse kidney at 15 mg/kg, iv measured at 24 hrs
# Type: ADME, organism-based
# Applied Conditions: read-out: Ct
Observation Type: concentration at 24 h (ng/g)
Answers are plain numbers, in ng/g.

Qu. # query: concentration at 24 h of entry N[C@@H]1[C@H]2CN(c3cnc(C(=O)Nc4cc(F)cc5cccnc45)cn3)C[C@@H]12
Ans. 53

---

# Method Notes: Toxicity in BALB/c mouse assessed as maximum tolerated dose at IV measured for 7 days
# Applied Conditions: in vivo, time 7 day
Observation Type: MTD at 168 h (mg/kg)
One number for each entry, in mg/kg.

Qu. Form field: reported MTD at 168 h of N[C@@H]1[C@H]2CN(c3cnc(C(=O)Nc4cc(F)cc5cccnc45)cn3)C[C@@H]12
Ans. 140

---

# System: MIA PaCa-2
# Method Notes: Cytotoxicity against human MIA PaCa-2 cells by MTT assay
# Assay type: functional, cell-based
Task for the reader: assign each of the following compounds its reported pIC50.
Give bare numbers, as −log10 of the molar value.

>>> reported_measurement("O=C(Nc1cc(F)cc2cccnc12)c1cnc(N2CCC(O)C2)cn1 (stereo not given)")
6.00

Consider the following items and state reported pIC50 for each.
1. CN1CC2CC1CN2c1cnc(C(=O)Nc2cc(F)cc3cccnc23)cn1 (stereo not given)
2. O=C(Nc1cc(F)cc2cccnc12)c1cnc(N2CCC(N3CCCC3)CC2)cn1
3. Cc1cc(C(=O)Nc2ccc(N3CCN(C)CC3)nc2)c2ncccc2c1
4. NC1CCC2(CC1)CN(c1cnc(C(=O)Nc3cc(F)cc4cccnc34)cn1)C2
5. O=C(Nc1cc(F)cc2cccnc12)c1cnc(N2CC3C(C2)C3(F)F)cn1 (stereo not given)
6. O=C(Nc1cc(F)cc2cccnc12)c1cnc(N2CC3CC2CS3(=O)=O)cn1 (stereo not given)
7. CN1C2CCC1CN(c1cnc(C(=O)Nc3cc(F)cc4cccnc34)cn1)C2
8. C[C@@H]1CNCCN1c1cnc(C(=O)Nc2cc(F)cc3cccnc23)cn1

Ans.
1: 7.00; 2: 6.30; 3: 4.67; 4: 5.33; 5: 5.27; 6: 5.85; 7: 6.40; 8: 6.40
